ASSAY_COMMENT: A CellTox Green Cytotoxicity Assay to monitor cytotoxicity in HEK293 cells - 16 hour (AID 1224888); further: nearly all actives have a fitted effect of over 35% in size
CONDITION_PARAMETERS: CellTox Green fluorescence; series mostly up to 76.8 µM
Results filed as inconclusive are left out. Activity calls are given as the source filed them. The call rests on the fitted dose curve; in most records, active means well fitted activation curve with a large enough effect in the repeat runs; inconclusive means weak or mixed curves; inactive means flat fitted curve, though single readings scatter.
Labels: Yes for active, No for inactive

[[record]]
compound = "c1nc[nH]n1"
classification = "No"

[[record]]
compound = "CC(C)(OOC(C)(C)c1ccccc1)c1ccccc1"
classification = "Yes"

[[record]]
compound = "O=C(NC(=O)c1c(F)cccc1F)Nc1ccc(Cl)cc1"
classification = "No"

[[record]]
compound = "CCC(C)(c1ccc(O)cc1)c1ccc(O)cc1"
classification = "No"

[[record]]
compound = "O=C(O)C(F)(F)C(F)(F)C(F)(F)C(F)(F)C(F)(F)C(F)(F)C(F)(F)F"
classification = "No"

[[record]]
compound = "c1cc(OCC2CO2)ccc1Cc1ccc(OCC2CO2)cc1 (centres undefined)"
classification = "No"

[[record]]
compound = "CCOP(=S)(OCC)O/N=C(\\C#N)c1ccccc1"
classification = "No"

[[record]]
compound = "CCOc1cc(C=O)ccc1O"
classification = "No"

[[record]]
compound = "O=C1C=CC(=O)C=C1"
classification = "No"

[[record]]
compound = "Clc1nc(Cl)nc(Cl)n1"
classification = "No"

[[record]]
compound = "CCCCCCCCC(=O)NCc1ccc(O)c(OC)c1"
classification = "No"

[[record]]
compound = "Cc1ccc(N)c(N)c1"
classification = "No"

[[record]]
compound = "COc1ccc(C(CN(C)C)C2(O)CCCCC2)cc1 (centres undefined)"
classification = "No"

[[record]]
compound = "CCOC(=S)S"
classification = "No"


###

ASSAY_COMMENT: A CellTox Green Cytotoxicity Assay to monitor cytotoxicity in HepG2 cells - 40 hour (AID 1224879); further: nearly all actives have a fitted effect of over 40% in size
CONDITION_PARAMETERS: CellTox Green fluorescence; series mostly up to 76.8 µM
Text: National Center for Advancing Translational Sciences [NCATS] NIH Chemical Genomics Center [NCGC] U.S. Environmental Protection Agency [EPA] National Institutes of Environmental Health Sciences [NIEHS] National Toxicology Program [NTP] Cell-based models are critical for drug discovery. […] Viable cells produce no appreciable increases in fluorescence. Therefore, the fluorescence signal produced by the binding interaction with dead cell DNA is proportional to cytotoxicity. […]
Results filed as inconclusive are left out. Activity calls are given as the source filed them. Calls come from the whole dose curve; as a rule, active = well fitted activation curve with a large enough effect in the repeat runs; inconclusive = weak or mixed curves; inactive = flat fitted curve, though single readings scatter.
Outcome codes: active, inactive

[[record]]
compound = "CC(C)c1ccc(CO)cc1"
classification = "inactive"

[[record]]
compound = "CCN(N=O)C(N)=O"
classification = "inactive"

[[record]]
compound = "NCc1cccnc1"
classification = "inactive"

[[record]]
compound = "CCN(CC)C(=O)/C(Cl)=C(\\C)OP(=O)(OC)OC"
classification = "inactive"

[[record]]
compound = "CCCCC(CC)COC(=O)Cl (stereo unspecified)"
classification = "inactive"

[[record]]
compound = "c1ccc(N=Nc2ccccc2)cc1"
classification = "inactive"

[[record]]
compound = "Clc1nc(Cl)nc(Cl)n1"
classification = "inactive"

[[record]]
compound = "O=C(NC(=O)c1c(F)cccc1F)Nc1ccc(Cl)cc1"
classification = "inactive"

[[record]]
compound = "CCc1cccc(CC)c1N(COC)C(=O)CCl"
classification = "inactive"

[[record]]
compound = "O=[N+]([O-])c1c(Cl)c(Cl)c(Cl)c(Cl)c1Cl"
classification = "inactive"

[[record]]
compound = "CCOP(=S)(OCC)O/N=C(\\C#N)c1ccccc1"
classification = "inactive"

[[record]]
compound = "Cc1cc(C)cc(C)c1"
classification = "inactive"

[[record]]
compound = "CC(C)N(C(=O)SCC(Cl)=C(Cl)Cl)C(C)C"
classification = "inactive"

[[record]]
compound = "C=CCc1ccc(OC)cc1"
classification = "inactive"

[[record]]
compound = "O=P(O)(O)CCCl"
classification = "inactive"

[[record]]
compound = "O=c1oc2ccccc2c(O)c1C(CC(O)c1ccc(-c2ccc(Br)cc2)cc1)c1ccccc1 (stereo unspecified)"
classification = "inactive"

[[record]]
compound = "CC(C)Oc1cc(-n2nc(C(C)(C)C)oc2=O)c(Cl)cc1Cl"
classification = "inactive"

[[record]]
compound = "COC(=O)c1sccc1S(=O)(=O)NC(=O)Nc1nc(C)nc(OC)n1"
classification = "inactive"

[[record]]
compound = "COc1ccc(C=O)cc1"
classification = "inactive"

[[record]]
compound = "CC(C)(c1cc(Cl)c(O)c(Cl)c1)c1cc(Cl)c(O)c(Cl)c1"
classification = "inactive"

[[record]]
compound = "CCCCCCOC(=O)c1ccccc1C(=O)OCCCCCC"
classification = "inactive"

[[record]]
compound = "O=[N+]([O-])c1cccc2ccccc12"
classification = "inactive"

[[record]]
compound = "CNC(=O)N(C)c1nnc(C(C)(C)C)s1"
classification = "inactive"

[[record]]
compound = "NNC(N)=S"
classification = "inactive"

[[record]]
compound = "CCC(C)c1ccc(O)cc1 (stereo unspecified)"
classification = "active"

[[record]]
compound = "N#CC(Br)Br"
classification = "inactive"

[[record]]
compound = "Cc1ccc(N)c(N)c1"
classification = "inactive"

[[record]]
compound = "Nc1cccnc1"
classification = "inactive"

[[record]]
compound = "CCOCN(C(=O)CCl)c1c(C)cccc1CC"
classification = "inactive"

[[record]]
compound = "CC(O)CCO (stereo unspecified)"
classification = "inactive"

[[record]]
compound = "Brc1ccc(Oc2cc(Br)c(Br)cc2Br)c(Br)c1"
classification = "inactive"

